# System: IGROV1 ovarian
# testMethodNotes: NCI tumour cell line growth inhibition, 48 h
Known TGI of a selection of molecules

{"molecule": "COc1ccc(-c2cc(/C=C/C(=O)c3ccc(OC)c(OC)c3)[nH]n2)cc1", "resultUnits": "µM", "comparisonSymbol": "=", "TGI": 3.65}
{"molecule": "N=C1C(=N)c2ccccc2-c2ccccc21.N=C1C(=N)c2ccccc2-c2ccccc21.N=C1C(=N)c2ccccc2-c2ccccc21.[Cl-].[Ru+2]", "resultUnits": "µM", "comparisonSymbol": "=", "TGI": 5.01}
{"molecule": "CCc1c(Cl)c(C)cc(O)c1Cl", "resultUnits": "µM", "comparisonSymbol": ">", "TGI": 100}
{"molecule": "Nc1ccn([C@H]2CO[C@@H](CO)[C@@H]2O)c(=O)n1", "resultUnits": "µM", "comparisonSymbol": ">", "TGI": 100}
{"molecule": "CC12CCC3c4ccc(O)cc4CCC3C1C/C(=N\\O)C2O (stereo not given)", "resultUnits": "µM", "comparisonSymbol": ">", "TGI": 100}
{"molecule": "CC1(C)CC(=O)CC(=Nc2ccc([N+](=O)[O-])cc2)C1", "resultUnits": "µM", "comparisonSymbol": ">", "TGI": 100}
{"molecule": "COc1ccc(-c2nsc3c2NC(=O)CC3c2cccc(OC)c2)cc1 (stereo not given)", "resultUnits": "µM", "comparisonSymbol": ">", "TGI": 100}
{"molecule": "C=C1CC/C=C(\\C)CCC[C@H](C)[C@@H](O)[C@@H]2OC(=O)C(=C)[C@@H]2C[C@H]1O", "resultUnits": "µM", "comparisonSymbol": "=", "TGI": 13.8}
{"molecule": "O=C(/C=C/C=C/c1ccccc1)c1ccccc1", "resultUnits": "µM", "comparisonSymbol": "=", "TGI": 31.2}
{"molecule": "CCOC(=O)/C=C(\\C(=O)OCC)n1ccc(=O)n(Cc2cn(CCCCOC(C)=O)nn2)c1=O", "resultUnits": "µM", "comparisonSymbol": "=", "TGI": 43}

----------
Known TGI of a selection of compounds
# System: SK-OV-3 ovarian
# testMethodNotes: NCI tumour cell line growth inhibition, 48 h
measureName: TGI

{"compound": "Nc1n[nH]c(=O)c2c1c(I)cn2C1OC(CO)C(O)C1O (stereo unspecified)", "targetOfAssay": "SK-OV-3 ovarian", "value": "> 100 µM"}
{"compound": "O=[N+]([O-])c1ccc(CI)cc1", "targetOfAssay": "SK-OV-3 ovarian", "value": "15.5 µM"}
{"compound": "COC12OCCN(C)C1=CC(=O)C1=NNC(C)C12 (stereo unspecified)", "targetOfAssay": "SK-OV-3 ovarian", "value": "> 100 µM"}
{"compound": "CC1=C(/C=C/C(C)=C/C=C/C(C)=C/C(=O)OC2CC(n3cc(F)c(=O)[nH]c3=O)OC2CO)C(C)(C)CCC1 (stereo unspecified)", "targetOfAssay": "SK-OV-3 ovarian", "value": "19.7 µM"}
{"compound": "Cc1cc(C(F)(F)F)cc(-n2nc(NS(=O)(=O)c3cc(C)c(Cl)cc3S)nc2N)n1", "targetOfAssay": "SK-OV-3 ovarian", "value": "> 100 µM"}
{"compound": "C=CCN(C(=O)CNC(=O)C(F)(F)F)c1cc(OCc2ccccc2)c2c(c1)c(C)cn2S(=O)(=O)c1ccccc1", "targetOfAssay": "SK-OV-3 ovarian", "value": "> 100 µM"}
{"compound": "CCOC(=O)/C=C(/C(=O)OCC)n1cnc2c(=O)[nH]c(NC(C)=O)nc21", "targetOfAssay": "SK-OV-3 ovarian", "value": "> 100 µM"}
{"compound": "CN(C)CCC(=O)C(=Cc1ccc(O)cc1)C(=O)CCN(C)C", "targetOfAssay": "SK-OV-3 ovarian", "value": "> 100 µM"}
{"compound": "COC(=O)c1ccc2c(c1)/C(=C\\c1cc(Br)c(O)c(Br)c1)C(=O)N2", "targetOfAssay": "SK-OV-3 ovarian", "value": "> 25 µM"}
{"compound": "CCN(Cc1ccc(F)cc1)c1ccc(CO)c(Br)c1", "targetOfAssay": "SK-OV-3 ovarian", "value": "21.9 µM"}
{"compound": "COC1=C(Br)[C@H](O)[C@@]2(C=C1Br)CC(C(=O)NCCCOc1c(Br)cc(C(O)CNC(C)=O)cc1Br)=NO2 (stereo partly specified)", "targetOfAssay": "SK-OV-3 ovarian", "value": "> 10 µM"}
{"compound": "CN(C)CCCn1cnc2cc(Cl)c(Cl)cc21", "targetOfAssay": "SK-OV-3 ovarian", "value": "> 100 µM"}
{"compound": "CC(C)(C)OC/C=C(/CO)[C@@H]1C=C[C@H](O)C1", "targetOfAssay": "SK-OV-3 ovarian", "value": "> 100 µM"}
{"compound": "O=C1NI(C#Cc2ccccc2)c2ccccc21", "targetOfAssay": "SK-OV-3 ovarian", "value": "95.1 µM"}
{"compound": "O=[N+]([O-])c1cccc2ccc(N/N=C/c3ccccc3O)nc12", "targetOfAssay": "SK-OV-3 ovarian", "value": "> 100 µM"}
{"compound": "C[C@H](Nc1cc(Cl)nc2c1cnn2[C@@H]1O[C@H](COP(=O)(O)CP(=O)(O)O)[C@@H](O)[C@H]1O)c1ccccc1F", "targetOfAssay": "SK-OV-3 ovarian", "value": "> 100 µM"}
{"compound": "CC(C)=CC1CC(=[N+]=[N-])C(=O)C1(C)C (stereo unspecified)", "targetOfAssay": "SK-OV-3 ovarian", "value": "> 100 µM"}
{"compound": "CC(Oc1ccc(Cl)cc1Cl)C(=O)NN1C(=O)CSC1c1ccccc1 (stereo unspecified)", "targetOfAssay": "SK-OV-3 ovarian", "value": "> 100 µM"}
{"compound": "CC(=O)c1c(O)ccc2c1c1c(n2C)C(=O)c2ccccc2C1=O", "targetOfAssay": "SK-OV-3 ovarian", "value": "> 100 µM"}
{"compound": "O=C(CC(C(=O)c1ccsc1)c1ccccc1)c1ccccc1 (stereo unspecified)", "targetOfAssay": "SK-OV-3 ovarian", "value": "> 100 µM"}
{"compound": "N=C1C(=N)c2ccccc2-c2ccccc21.N=C1C(=N)c2ccccc2-c2ccccc21.N=C1C(=N)c2ccccc2-c2ccccc21.[Cl-].[Ru+2]", "targetOfAssay": "SK-OV-3 ovarian", "value": "6.91 µM"}

----------
# Tested on: SF-539 CNS
# testMethodNotes: NCI tumour cell line growth inhibition, 48 h; in the data active means GI50 below about 0.43 µM; inactive means the rest
Possible outcomes: 1 (active), 0 (inactive)

{"compound": "COc1cc(/C=C\\c2cc(OC)c(OC)c(OC)c2)cc(N/C=C\\C(=O)c2cc(OC)c(OC)c(OC)c2)c1OC", "assignedLabel": 0}
{"compound": "CS(=O)(=O)Nc1cc(-c2ccc3ncnc(Nc4c(Cl)ccc5c4OCO5)c3c2)cnc1Cl", "assignedLabel": 1}
{"compound": "O=C(NNc1ccccc1)C(=O)NNc1ccccc1", "assignedLabel": 0}
{"compound": "COc1cc(/C=C/C(=O)c2cccc(-n3cc(-c4ccc(Cl)cc4)[nH]c3=O)c2)ccc1O", "assignedLabel": 0}
{"compound": "COc1cccc2c1C(=O)c1c(O)c3c(c(O)c1C2=O)C[C@@](O)(/C(C)=N/NC(=O)c1ccc(Cl)cc1)C[C@@H]3OC1CC(N)C(O)C(C)O1 (some centres not stated)", "assignedLabel": 1}
{"compound": "O=C1c2cccc3cccc(c23)C(=O)N1CCCCCN1CCN(CCCCCOc2ccc(-c3nc4ccc(N5CCOCC5)cc4[nH]3)cc2)CC1", "assignedLabel": 0}
{"compound": "CC(C)OC(=O)[C@H](C)NP(=O)(OC[C@H]1O[C@@H](n2ccc(=O)[nH]c2=O)[C@](C)(F)[C@@H]1O)Oc1ccccc1 (some centres not stated)", "assignedLabel": 0}
{"compound": "COc1ccc(-c2cc(/C=C/C(=O)c3ccc(OC)c(OC)c3)[nH]n2)cc1", "assignedLabel": 0}
{"compound": "O=[N+]([O-])c1ccc(CI)cc1", "assignedLabel": 0}
{"compound": "O=C(Nc1cc(C(F)(F)F)ccc1Cl)c1cccc(NC2=C(Cl)C(=O)N(Cc3ccccc3)C2=O)c1", "assignedLabel": 0}
{"compound": "Clc1nc(Cl)nc(Nc2cccc3ccccc23)n1", "assignedLabel": 0}
{"compound": "CCc1ccc(/C=C/c2ccc(O)c3ncccc23)[n+](C)c1", "assignedLabel": 0}

----------
Known TGI of a selection of molecules
# Test system: NCI-H460 lung
# testMethodNotes: NCI tumour cell line growth inhibition, 48 h
measureName: TGI

{"molecule": "CC(=O)OCC1OC(n2c(C)cc(C)c(C#N)c2=S)C(OC(C)=O)C(OC(C)=O)C1OC(C)=O (centres undefined)", "measureName": "TGI", "value": "> 100 µM"}
{"molecule": "COC(=O)c1cc2c(s1)-c1nccc3c1c(nc1ccccc13)C2=O", "measureName": "TGI", "value": "> 100 µM"}
{"molecule": "COc1ccc(/C(=C\\C=C(C#N)C#N)Sc2nc3ccccc3s2)cc1", "measureName": "TGI", "value": "> 50 µM"}
{"molecule": "O=[N+]([O-])c1ccc(-c2cnc3ccccn23)cc1", "measureName": "TGI", "value": "> 100 µM"}
